# credit: patent US20070254831A1

experimental-target: T1, soluble human FcRn (human, UniProt P55899 24-297; P61769 21-119, biotinylated (Sulfo-NHS-LC-Biotin) in the ELISA; amine-coupled to CM5 chip in SPR)
T1 construct: also called shFcRn; biotinylated shFcRn
T1 sequence (P55899 24-297 limits assumed, chain 1 of 2): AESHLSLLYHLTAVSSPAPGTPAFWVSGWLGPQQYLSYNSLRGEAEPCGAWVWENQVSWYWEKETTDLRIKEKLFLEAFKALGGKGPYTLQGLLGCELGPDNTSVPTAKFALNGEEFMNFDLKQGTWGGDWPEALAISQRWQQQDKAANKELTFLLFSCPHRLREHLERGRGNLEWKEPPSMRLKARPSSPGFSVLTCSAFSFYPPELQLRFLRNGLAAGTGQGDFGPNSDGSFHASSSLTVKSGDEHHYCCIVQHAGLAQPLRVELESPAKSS
T1 sequence (P61769 21-119 limits assumed, chain 2 of 2): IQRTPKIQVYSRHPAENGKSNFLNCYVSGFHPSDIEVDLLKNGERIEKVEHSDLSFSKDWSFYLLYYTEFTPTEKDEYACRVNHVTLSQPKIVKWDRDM
assay-name: SPR, pH 6
Bridge positions count the residues as written; N and C are the ends. Ends that are not written are not given here.
readout: Kd
# output: number + unit

| binder | readout | observed-measurement |
| --- | --- | --- |
| QRFCTGHFGGLYPCN-NH2 (disulfide 4-14 (inferred)) [SEQ ID NO:24] | Kd | 6.1 µM |
| FCTGHFGGLYPCNGP-NH2 (disulfide 2-12 (inferred)) [SEQ ID NO:22] | Kd | 11 µM |
| AGQRFCTGHFGGLYPCNGPGTGGGK-NH2 (disulfide 6-16 (inferred)) [SEQ ID NO:6] | Kd | 5.7 µM |
| CTGHFGGLYPC-NH2 (disulfide 1-11 (inferred)) [SEQ ID NO:19] | Kd | 20 µM |

Here is the next item to consider.
Kd in this record for CTGHFGGLYPCNGP-NH2 (disulfide 1-11 (inferred)) [SEQ ID NO:17] : 34 µM
